Data provenance is patent US20210188980A1.

biological target: T1, human PD-1-His protein (human, UniProt Q15116 25-167, limits assumed); test: SPR Biacore
T1 construct: also called huPD-1; not shown: His tag
T1 sequence (Q15116 25-167 limits assumed): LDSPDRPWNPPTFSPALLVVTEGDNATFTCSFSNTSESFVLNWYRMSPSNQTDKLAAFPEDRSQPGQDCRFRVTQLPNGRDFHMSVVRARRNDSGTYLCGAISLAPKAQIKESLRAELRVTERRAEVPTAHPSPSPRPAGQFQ
recordedMetric: koff (s⁻¹)
Report the value in s⁻¹ with no unit label.

[ask] Please indicate koff recorded for HumAb713-1 (antibody, human IgG1, kappa, L234A L235A, V domains shown, humanized mAb713) VH: EVQLVESGGGLVQPGGSLRLSCAASGFTFSDYGMHWVRQAPGKGLEWVSYISSGSYTIYYADTVKGRFTISRDNAKNSLYLQMNSLRDEDTAVYYCARRGGSSHVNVMDYWGQGTTVTVSS VL: DIQMTQSPSSLSASVGDRVTITCKASDHINNWLAWYQQKPGKAPKLLIYGATSLETGVPSRFSGSGSGTDFTFTISSLQPEDIATYYCQQYWSPPYTFGGGTKVEIKR
[reply] 0.001
